B1: glmS ribozyme (parent)
chain: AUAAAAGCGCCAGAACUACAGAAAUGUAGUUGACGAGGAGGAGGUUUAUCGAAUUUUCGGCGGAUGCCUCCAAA

Variants of: B1
ASSAY PROCEDURE: kcat; higher = faster cleavage; RNA array
ASSAY CONTEXT: with glucosamine-6-phosphate
Variants at the floor of the assay were thinned out.
# kcat >= 0.0001 s⁻¹ gives YES, anything below gives NO

>  <SEQUENCE TEXT>
AUAAAAGCGCCAGAACUACAGAAAUGUAGUUGACGAGGAGGAGGUUAAUCGAAUUUUCGGCGGAUGCCACCAAA

>  <CATEGORY>
NO

$$$$
>  <SEQUENCE TEXT>
AUAAAAGCGCCAGAUCUACAGAAAUGUAGUUGACGAGGAGGAGGUUUAUCGAGUUUUCGGCGGAUGCCUCCAAA

>  <CATEGORY>
YES

$$$$
>  <SEQUENCE TEXT>
AUAAAAGCGCCAGAACUACAGAAAUGUAGUUGACGAGGAGGCGGUUUAUCGAAUGUUCGGCGGAUGCCUCCAAA

>  <CATEGORY>
NO

$$$$
>  <SEQUENCE TEXT>
AUAAAAGCGCCAGAUCUACAGAAAUGUAGCUGACGAGGAGGAGGUUUAUCGAAUUUUCGGCGGAUGCCUCCAAA

>  <CATEGORY>
YES

$$$$
>  <SEQUENCE TEXT>
AUAAAAGCGCCAGAACUACAGAAAUGUAGUUGACGAGGAGGAGGUUUAUCGAAUUUUCGGCGGAGGCCUCCAAA

>  <CATEGORY>
YES

$$$$

Kindly consider the entry below.
Given "AUAAAAGCGCCAGAACUACAGAAAUGUAGUUGACGAGGAUGAGGUAUAUCGAAUUUUCGGCGGAUGCCUCCAAA" , state whether its kcat is at least 0.0001 s⁻¹.
YES
